# testDescription: NCI Yeast Anticancer Drug Screen. Data for the sgs1 mgt1 strain (AID 161);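 further: 0% = growth of cultures given vehicle only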
# conditionParameters: S. cerevisiae sgs1 mgt1 strain, at 50.0 µM, stronger effect = higher value
The panel holds about 79,000 compounds, 15% with a hit somewhere; the sample as a whole holds those more often.
measureName: growth inhibition (%)
Express your answer in %, writing the number without its unit.

Example cases with answers are listed next.
- compound: "C/C(=N/NC(N)=O)c1ccc([N+](=O)[O-])o1"
  growth inhibition / %: 30.8
- compound: "CC(=O)Nc1ccc(/C=C/c2ccc(N=C=S)c(S(=O)(=O)O)c2)c(S(=O)(=O)O)c1"
  growth inhibition / %: -19
- compound: "COC1OC(COC(c2ccccc2)(c2ccccc2)c2ccccc2)C2SC12 (centres undefined)"
  growth inhibition / %: -1.05

growth inhibition in this record for "Cc1ccc2c(C)cc(=O)n(C)c2c1" : 9.6

----------
# testDescription: NCI Yeast Anticancer Drug Screen. Data for the mec2-1 strain (AID 157)
# conditionParameters: S. cerevisiae mec2-1 strain, at 50.0 µM, stronger effect = higher value
This is part of a sample that, as a whole, favours compounds with a hit. Of some 79,000 tested, about 15% had one in any assay.
measureName: growth inhibition (%)
Express your answer in %, writing the number without its unit.

Example cases with answers are listed next.
- molecule: "CSc1sc2ccc(S(=O)(=O)O)cc2[n+]1C"
  reported: -6.7
- molecule: "N=C1N=Nc2nc(C(C(=O)c3cccc([N+](=O)[O-])c3Cl)c3nc4n(c3O)C(=N)N=N4)c(O)n21 (stereo unspecified)"
  reported: 0.7
- molecule: "N=C(N)SCCC(=O)CCSC(=N)N"
  reported: 18.6
- molecule: "CCN(CC)CCOC(=O)c1c(C)cc(C)cc1C"
  reported: -9.4
- molecule: "CCOc1ccc(/C=C2\\CCc3ccccc3C2=O)cc1"
  reported: 16.6

growth inhibition in this record for CSc1nc(NC2OC(COC(C)=O)C(OC(C)=O)C(OC(C)=O)C2OC(C)=O)c2c(n1)OCC2=O (stereo unspecified) : -13.7

growth inhibition in this record for "[Cl][Sm]([Cl])[Cl]" : -9.7

growth inhibition in this record for "c1ccc(CNCc2ccccc2)cc1" : 3.8

growth inhibition in this record for BrC1(Br)C2CC/C=C/CCCCC21 (stereo unspecified) : 13.9

growth inhibition in this record for COC(=O)C(S)(NC(C)=O)C(C)C (stereo unspecified) : -10.5

----------
# testDescription: NCI Yeast Anticancer Drug Screen. Data for the bub3 strain (AID 167)
# conditionParameters: S. cerevisiae bub3 mutant strain, at 50.0 µM, stronger effect = higher value
This is part of a sample that, as a whole, favours compounds with a hit. Of some 79,000 tested, about 15% had one in any assay.
measureName: growth inhibition (%)
Express your answer in %, writing the number without its unit.

growth inhibition in this record for "COC(=O)c1ccccc1Cl" : 6.65

growth inhibition in this record for CCCCNCC1COc2cccc(OCC)c2O1 (stereo not drawn) : -6.75

growth inhibition in this record for CCC1CCCC1=O (stereo not drawn) : 10.4

----------
Measured growth inhibition, listed per entry.
# testDescription: NCI Yeast Anticancer Drug Screen. Data for the mec2-1 strain (AID 157)
# conditionParameters: S. cerevisiae mec2-1 strain, at 50.0 µM, stronger effect = higher value
This is part of a sample that, as a whole, favours compounds with a hit. Of some 79,000 tested, about 15% had one in any assay.
Express your answer in %, writing the number without its unit.

Example cases with answers are listed next.
- compound: "Cc1cc(O)c(/C=N/C(=S)NCCc2ccccc2)c(=O)o1"
  readingUnit: "%"
  growth inhibition: -29.5
- compound: "CCNCC(=O)Nc1ccccc1C(=O)OCC"
  readingUnit: "%"
  growth inhibition: 14
- compound: "CN1C(=S)CSc2ccccc21"
  readingUnit: "%"
  growth inhibition: -4
- compound: "CC(=O)NO"
  readingUnit: "%"
  growth inhibition: -4.05
- compound: "Nc1nn2c(nc(N)c3c(N)[nH]nc32)c1N=Nc1ccc(Br)cc1"
  readingUnit: "%"
  growth inhibition: 11.8
- compound: "CCOC(=O)COc1c(C)cccc1C"
  readingUnit: "%"
  growth inhibition: 5.45
- compound: "CCOc1ccccc1NC(=O)C(=O)CC(=O)c1sc(Nc2nnc(-c3ccc(Cl)c(Cl)c3)o2)nc1C"
  readingUnit: "%"
  growth inhibition: -11.6
- compound: "C#CC(C)(C)CC"
  readingUnit: "%"
  growth inhibition: -16.4

Please examine the following record next.
growth inhibition in this record for CCOC(=O)C1(C)CCCCC1=O (centres undefined) : -6.55

----------
# testDescription: NCI Yeast Anticancer Drug Screen. Data for the sgs1 mgt1 strain (AID 161);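 further: 0% = growth of cultures given vehicle only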
# conditionParameters: S. cerevisiae sgs1 mgt1 strain, at 50.0 µM
Compounds without any hit were thinned out: in the full panel of roughly 79,000, 15% have a hit. Activity calls are given as the source filed them. Cut-off read from the data, not from the text of the source: active = growth inhibition above about 70%; inactive = the rest.
Entry note: the call must match one of active, inactive

Field: example entries. Status: answers known.
- molecule: "CCOc1c(F)ccc(F)c1-c1c(F)ccc(F)c1OCC"
  className: "inactive"
- molecule: "CCOC(=O)CCc1c[nH]c2ccccc12"
  className: "inactive"
- molecule: "CC1OC(OCC2OC(Oc3ccc4c(=O)c(-c5ccc6c(c5)OCO6)coc4c3)C(O)C(O)C2O)C(O)C(O)C1O (configuration not stated)"
  className: "inactive"
- molecule: "OCCCN=C1CCCCC1"
  className: "inactive"

Enquiry: Tell me the assay call for "CCOC(=O)C1=CC(=O)CC(C)(C)O1" please.
Return: inactive

Enquiry: Tell me the assay call for "CCOP(=O)(OCC)/C(C#N)=C/c1c(C)[nH]c2ccccc12" please.
Return: inactive

Enquiry: Tell me the assay call for "Nc1c2ccccc2nc2ccc3c(=O)cc(-c4ccccc4)oc3c12" please.
Return: inactive

Enquiry: Tell me the assay call for "ClCCCN1CCN(CCCCl)CC1" please.
Return: active

Enquiry: Tell me the assay call for "COc1ccc(NC(=O)Oc2ccccc2C(N)=O)c(Cl)c1" please.
Return: inactive

Enquiry: Tell me the assay call for "C=CCOc1c(C)cc(C)cc1C" please.
Return: inactive

Enquiry: Tell me the assay call for CCOC(=O)CC1CC(C)(C(=O)OCC)C(=O)CC1=O (configuration not stated) please.
Return: inactive

Enquiry: Tell me the assay call for CC1(C)C2CC=C(CCO)C1C2 (configuration not stated) please.
Return: inactive

Enquiry: Tell me the assay call for "O=c1[nH]c2cccccc-2c1-c1nc2ccccc2[nH]1" please.
Return: inactive

Enquiry: Tell me the assay call for "CN(C)C(=S)/N=c1\ssc(=S)n1Cc1ccccc1" please.
Return: inactive

Enquiry: Tell me the assay call for "C[N+](C)(C)N=C1CCCCC1" please.
Return: inactive

Enquiry: Tell me the assay call for CC1=CC(NCCC(=O)O)NC(=O)N1 (configuration not stated) please.
Return: inactive

Enquiry: Tell me the assay call for CC1(CO)CCCC1NCCNC1CCCC1(C)CO (configuration not stated) please.
Return: inactive

Enquiry: Tell me the assay call for "CCn1c(=O)c(C#N)c2n(CC)c3cc(C)c(C)cc3n2c1=O" please.
Return: inactive

Enquiry: Tell me the assay call for CC(C(=O)O)n1c(=O)ssc1=O (configuration not stated) please.
Return: inactive

----------
Measured growth inhibition, listed per entry.
# testDescription: NCI Yeast Anticancer Drug Screen. Data for the bub3 strain (AID 167)
# conditionParameters: S. cerevisiae bub3 mutant strain, at 50.0 µM, stronger effect = higher value
About 79,000 compounds went through this panel and 15% of them were active in at least one assay; those are over-represented in the sample as a whole.
Express your answer in %, writing the number without its unit.

- smilesStructure: "CC(C)(O)CC(O)(C(F)(F)F)C(F)(F)F"
  growth inhibition (%): 3.35
- smilesStructure: "CCOC(C)=N"
  growth inhibition (%): -9.7

Please examine the following record next.
growth inhibition in this record for "O=c1[nH]cnc2sc3c(c12)CCC3" : 3.1

----------
# testDescription: NCI Yeast Anticancer Drug Screen. Data for the rad50 strain (AID 155);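 further: 0% = growth of vehicle-only cultures of the same strain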
# conditionParameters: S. cerevisiae rad50 strain growth inhibition; at 50.0 µM; stronger effect = higher value
This is part of a sample that, as a whole, favours compounds with a hit. Of some 79,000 tested, about 15% had one in any assay.
measureName: growth inhibition (%)
Express your answer in %, writing the number without its unit.

Example cases with answers are listed next.
- molecule: "CC(=O)OCC(COC(C)=O)C(C)=O"
  growth inhibition, %: -7.35
- molecule: "COC(=O)c1nc(N)nc(C(=O)OC)c1C(=O)c1ccncc1"
  growth inhibition, %: -12.2
- molecule: "COc1ccc(CCNC(=S)NCCc2ccc(OC)cc2)cc1"
  growth inhibition, %: 11.8

growth inhibition in this record for Nc1ccc(C2SCC(=O)N2NS(=O)(=O)c2cccc(C(=O)O)c2)cc1 (stereo unspecified) : -21.3

growth inhibition in this record for "CC1=Nc2nc(=NCCCN(C)C)nc3cccc(n23)N1" : 7.6

growth inhibition in this record for "CN(C)c1ccc(/C=N/NC(=O)c2ccc(N)cc2)cc1" : 1.35

growth inhibition in this record for "O=C(Cl)CNS(=O)(=O)c1ccccc1" : 5.45
